The following compounds each carry a recorded Ki for Rat SERT (Rattus norvegicus, UniProt P31652).
Reported property: Ki

>  <Compound>
CN(C)CCC(Oc1ccc(Cl)c(Cl)c1)c1ccc(OCCCN2CCCCC2)cc1 (single isomer, unassigned; (-))

>  <Result>
11 nM

$$$$
>  <Compound>
CN(C)CCC(Oc1cccc(OCCCN2CCCCC2)c1)c1ccccc1 (stereo not drawn)

>  <Result>
65 nM

$$$$
>  <Compound>
CN(C)CCC(Oc1ccc(C(F)(F)F)cc1)c1ccc(CN2CCN(C3CCCC3)CC2)cc1 (stereo not drawn)

>  <Result>
30 nM

$$$$
>  <Compound>
CN(C)CCC(Oc1ccc(OCCCN2CCCCC2)cc1)c1ccc(C(F)(F)F)cc1 (stereo not drawn)

>  <Result>
9 nM

$$$$
>  <Compound>
CN(C)CCC(Oc1ccc(C#CCCN2CCCCC2)cc1)c1ccccc1 (stereo not drawn)

>  <Result>
22 nM

$$$$
>  <Compound>
CNCCC(Oc1ccccc1)c1ccc(OCCCN2CCCCC2)cc1 (stereo not drawn)

>  <Result>
5 nM

$$$$
>  <Compound>
CN(C)CCC(Oc1ccc(Br)cc1)c1ccc(OCCCN2CCCCC2)cc1 (stereo not drawn)

>  <Result>
5 nM

$$$$
>  <Compound>
CN(C)CCC(Oc1ccc(C#CCCN2CCOCC2)cc1)c1ccc(C(F)(F)F)cc1 (stereo not drawn)

>  <Result>
342 nM

$$$$
>  <Compound>
CN(C)CCC(Oc1ccccc1)c1cccc(C#CCCN2CCCCC2)c1 (stereo not drawn)

>  <Result>
16 nM

$$$$
>  <Compound>
CN(C)CCC(Oc1ccc(C(F)(F)F)cc1)c1ccc(CCCCN2CCOCC2)cc1 (stereo not drawn)

>  <Result>
10 nM

$$$$
>  <Compound>
Cc1ccc(OC(CCN(C)C)c2ccc(OCCCN3CCCCC3)cc2)cc1 (stereo not drawn)

>  <Result>
1.5 nM

$$$$
>  <Compound>
CC(C)N1CCN(CCCCc2ccc(C(CCN(C)C)Oc3ccc(C(F)(F)F)cc3)cc2)CC1 (stereo not drawn)

>  <Result>
7 nM

$$$$
>  <Compound>
COc1cccc(OC(CCN(C)C)c2ccc(OCCCN3CCCCC3)cc2)c1 (stereo not drawn)

>  <Result>
3 nM

$$$$
>  <Compound>
CN(C)CCC(Oc1ccc(C(F)(F)F)cc1)c1ccc(C#CCCN2CCCCC2)cc1 (stereo not drawn)

>  <Result>
58 nM

$$$$
>  <Compound>
CC(C)N1CCN(C(=O)c2ccc(C(CCN(C)C)Oc3ccccc3)cc2)CC1 (stereo not drawn)

>  <Result>
161 nM

$$$$
>  <Compound>
CN(C)CCC(Oc1ccc(Cl)cc1Cl)c1ccc(OCCCN2CCCCC2)cc1 (stereo not drawn)

>  <Result>
7 nM

$$$$
>  <Compound>
CC(C)N1CCN(C(=O)c2ccc(C(CCN(C)C)Oc3ccc(Cl)c(Cl)c3)cc2)CC1 (stereo not drawn)

>  <Result>
18 nM

$$$$
>  <Compound>
CN(C)CCC(Oc1ccc(C#N)cc1)c1ccc(OCCCN2CCCCC2)cc1 (stereo not drawn)

>  <Result>
8 nM

$$$$
